target: GST-Mps1 full length (Homo sapiens, UniProt P33981, C604Y); experiment: biochemical
Sequence (P33981 whole entry C604Y): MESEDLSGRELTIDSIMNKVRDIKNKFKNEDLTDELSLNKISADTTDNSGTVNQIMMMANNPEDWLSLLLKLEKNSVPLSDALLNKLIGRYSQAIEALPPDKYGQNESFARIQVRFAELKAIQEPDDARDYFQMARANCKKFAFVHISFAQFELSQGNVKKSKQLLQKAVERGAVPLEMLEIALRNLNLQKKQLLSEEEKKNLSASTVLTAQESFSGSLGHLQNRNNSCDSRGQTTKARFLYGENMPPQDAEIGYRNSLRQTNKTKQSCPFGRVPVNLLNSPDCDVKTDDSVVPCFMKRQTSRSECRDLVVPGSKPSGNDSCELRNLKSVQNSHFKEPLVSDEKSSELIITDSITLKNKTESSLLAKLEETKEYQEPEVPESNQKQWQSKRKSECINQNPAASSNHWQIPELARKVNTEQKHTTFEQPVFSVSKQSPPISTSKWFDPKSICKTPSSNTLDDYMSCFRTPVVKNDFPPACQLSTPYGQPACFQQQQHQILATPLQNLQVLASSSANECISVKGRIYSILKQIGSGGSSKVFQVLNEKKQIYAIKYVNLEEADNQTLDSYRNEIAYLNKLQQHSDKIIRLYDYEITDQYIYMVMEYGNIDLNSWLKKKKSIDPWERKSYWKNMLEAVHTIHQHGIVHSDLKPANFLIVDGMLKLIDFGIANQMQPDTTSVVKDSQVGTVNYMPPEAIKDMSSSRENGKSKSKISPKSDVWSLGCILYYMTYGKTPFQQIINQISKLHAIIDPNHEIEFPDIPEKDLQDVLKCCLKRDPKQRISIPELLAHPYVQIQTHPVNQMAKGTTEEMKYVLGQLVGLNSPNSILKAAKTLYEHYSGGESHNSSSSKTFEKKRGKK
observed property: IC50 (nM)
Answers are plain numbers, in nM.

## Task Fill in: IC50 of CCc1cccc(CC)c1NC(=O)c1nn(C)c2c1CCc1cnc(Nc3ccc(N4CCN(C)CC4)cc3OC)nc1-2 is ___
## Result 170

---

molecular target: Mps1 kinase domain (Homo sapiens, UniProt P33981, C604Y); test: microscale thermophoresis, DY-547P1 labelled protein
observed property: pKd
Give bare numbers, as −log10 of the molar value.

## Task Fill in: pKd of CCc1cccc(CC)c1NC(=O)c1nn(C)c2c1CCc1cnc(Nc3ccc(N4CCN(C)CC4)cc3OC)nc1-2 [Cpd-5] is ___
## Result 6.33
